Source of measurements: patent US12479827B2

- target-entity: PKK in kaolin activated human platelet poor plasma (Homo sapiens)
- Construct: Platelet poor plasma (PPP) obtained from human wholeblood
- run-description: Inhibition of PKK in kaolin activated human PPP;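 also: readout is the rate of fluorogenic substrate cleavage in rfu per min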
- condition-label: 25-750 μg/mL kaolin, global fit, text b200 calls the values IC90
- Experimental: Platelet poor plasma (PPP) obtained from human wholeblood, anticoagulated with Na-Citrate, is incubated with various concentrations of the test compound together with either 25, 75, 250, or 750 μg/mL kaolin in assay buffer for 20 min at 37° C. such that for each kaolin dose used a concentration response is obtained for the test compound.
Below: a set of entries, each annotated with reported IC50.

>  <compound>
Cn1cnc2c1CC[C@H]2NC(=O)c1cnn(Cc2ccc(N3CC4CC4C3)nc2C(F)F)c1 (some centres unmarked) [Example 48]

>  <IC50>
612 nM

$$$$
>  <compound>
Cn1cnc2c1CC[C@H]2NC(=O)c1cn(Cc2ccc(N3CC4CC4C3)nc2C(F)F)nn1 (some centres unmarked)

>  <IC50>
334 nM

$$$$
>  <compound>
Cn1cnc2c1CC[C@H]2NC(=O)c1cnn(Cc2ccc(N3CC4CC4C3)nc2C(F)F)c1 (some centres unmarked) [Example 43]

>  <IC50>
308 nM

$$$$
>  <compound>
Cn1cnc2c1CC[C@H]2NC(=O)c1cnn(Cc2ccc(N3CC4C(C3)C4(F)F)nc2F)c1 (some centres unmarked)

>  <IC50>
460 nM

$$$$
>  <compound>
Cc1nc(N2CC3C(C2)C3(F)F)ccc1Cn1cc(C(=O)N[C@@H]2CCc3c2ncn3C)nn1 (some centres unmarked)

>  <IC50>
202 nM

$$$$
>  <compound>
CCc1nc(N2CC3C(C2)C3(F)F)ccc1Cc1cc(C(=O)N[C@@H]2CCc3c2ncn3C)n(CC)n1 (some centres unmarked)

>  <IC50>
431 nM

$$$$
>  <compound>
Cc1nc(N2CC3CC3C2)ccc1Cn1cc(C(=O)N[C@@H]2CCc3c2ncn3C)c(C#N)n1 (some centres unmarked)

>  <IC50>
797 nM

$$$$
>  <compound>
CCc1nc(N2CC3CC3C2)ccc1Cc1cc(C(=O)N[C@@H]2CCc3c2ncn3C)[nH]n1 (some centres unmarked)

>  <IC50>
342 nM

$$$$

###

- target-entity: Human PKK (Homo sapiens)
- Construct: purchased Enzyme Research Laboratories
- Sequence (P03952 20-390 limits assumed): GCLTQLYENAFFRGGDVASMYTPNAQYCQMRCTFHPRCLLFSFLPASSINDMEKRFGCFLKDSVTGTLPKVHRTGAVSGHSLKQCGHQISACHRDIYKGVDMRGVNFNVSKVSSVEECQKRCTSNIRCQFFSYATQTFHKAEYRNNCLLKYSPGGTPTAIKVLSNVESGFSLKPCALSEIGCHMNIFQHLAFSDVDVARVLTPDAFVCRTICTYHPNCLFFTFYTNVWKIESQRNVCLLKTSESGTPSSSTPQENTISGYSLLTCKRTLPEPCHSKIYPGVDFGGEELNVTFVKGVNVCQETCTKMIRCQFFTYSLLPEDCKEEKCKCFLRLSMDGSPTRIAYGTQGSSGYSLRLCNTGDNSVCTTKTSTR
- Sequence (P03952 391-638 limits assumed): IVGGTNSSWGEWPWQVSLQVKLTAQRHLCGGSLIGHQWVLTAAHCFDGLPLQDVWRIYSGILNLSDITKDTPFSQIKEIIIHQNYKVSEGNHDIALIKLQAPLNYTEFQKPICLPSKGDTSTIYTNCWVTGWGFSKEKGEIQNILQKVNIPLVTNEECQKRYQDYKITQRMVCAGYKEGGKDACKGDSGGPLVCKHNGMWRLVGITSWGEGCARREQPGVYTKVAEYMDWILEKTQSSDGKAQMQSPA
- run-description: Inhibition of PKK using an endpoint assay (human PKK)
- Type: biochemical
- condition-label: fluorogenic substrate H-Pro-Phe-Arg-AMC, 1 h room temperature, method names human or rat PKK, table does not say which
pIC50: −log10 of the molar value.

>  <compound>
Cn1cnc2c1CC[C@H]2NC(=O)c1cnn(Cc2ccc(N3CC4(CC4)C3)nc2Cl)c1 [Example 56]

>  <pIC50>
8.74

$$$$
>  <compound>
Cn1cnc2c1CC[C@H]2NC(=O)c1cn(Cc2ccc(N3CC4(CC4)C3)nc2)nn1 [Example 26]

>  <pIC50>
8.31

$$$$
>  <compound>
Cc1nc(N2CC3CC3C2)ccc1Cc1cc(C(=O)N[C@@H]2CCc3c2ncn3C)co1 (stereo partly shown) [Example 182]

>  <pIC50>
8.15

$$$$
>  <compound>
COC1C2CC1CN(c1ncc(Cn3cc(C(=O)N[C@@H]4CCc5c4ncn5C)cn3)c(C)n1)C2 (stereo partly shown) [Example 233]

>  <pIC50>
7.09

$$$$
>  <compound>
Cn1cnc2c1CC[C@H]2NC(=O)c1cn(Cc2ccc(N3CC4(CC4)C3)nc2Br)cn1 [Example 16]

>  <pIC50>
9.22

$$$$
>  <compound>
CCc1nc(N2CC3CC3C2)ccc1Cc1cc(C(=O)N[C@@H]2CCc3c2ncn3C)n(CC)n1 (stereo partly shown) [Example 162]

>  <pIC50>
8.96

$$$$
>  <compound>
Cc1nc(N2CC3C(C2)C3(C)C)ncc1Cn1cc(C(=O)N[C@@H]2CCc3c2ncn3C)cn1 (stereo partly shown) [Example 228]

>  <pIC50>
6.90

$$$$
>  <compound>
Cc1cc(N2CC3CC3C2)c(C#N)cc1Cn1cc(C(=O)N[C@@H]2CCc3c2ncn3C)cn1 (stereo partly shown) [Example 200]

>  <pIC50>
8.07

$$$$
>  <compound>
COCc1nc(N2CC3CC3C2)ccc1Cn1cnc(C(=O)N[C@@H]2CCc3c2ncn3C)c1 (stereo partly shown) [Example 180]

>  <pIC50>
8.59

$$$$
>  <compound>
C[C@@H](O)c1nc(N2CC3CC3C2)ccc1Cn1cc(C(=O)N[C@@H]2CCc3c2ncn3C)cn1 (stereo partly shown) [Example 82]

>  <pIC50>
9.10

$$$$
>  <compound>
Cn1cnc2c1CC[C@H]2NC(=O)c1cn(Cc2ccc(N3CC4C(C3)C4(F)F)nc2Br)cn1 (stereo partly shown) [Example 28]

>  <pIC50>
9.22

$$$$
>  <compound>
Cn1cnc2c1CC[C@H]2NC(=O)c1cn(Cc2ccc(N3CC4C(C3)C4(F)F)nc2CO)cn1 (stereo partly shown) [Example 96]

>  <pIC50>
8.82

$$$$
>  <compound>
CCc1nc(N2CC3CC3C2)ccc1Cn1cnc(C(=O)N[C@@H]2CCc3c2ncn3C)c1 (stereo partly shown) [Example 75]

>  <pIC50>
9.30

$$$$
>  <compound>
COCc1nc(N2CC3(CC3)C2)ccc1Cn1cc(C(=O)N[C@@H]2CCc3c2ncn3C)cn1 [Example 78]

>  <pIC50>
8.17

$$$$
>  <compound>
Cc1c(Cn2cc(C(=O)N[C@@H]3CCc4c3ncn4C)cn2)ccc(N2CC3CC3C2)c1C#N (stereo partly shown) [Example 193]

>  <pIC50>
9.40

$$$$
>  <compound>
Cn1cnc2c1CC[C@H]2NC(=O)c1cn(Cc2ccc(N3CC4CC4C3)cc2C#N)cn1 (stereo partly shown) [Example 206]

>  <pIC50>
9.40

$$$$
>  <compound>
Cn1cnc2c1CC[C@H]2NC(=O)c1ccn(Cc2ccc(N3CC4C(C3)C4(F)F)nc2)c1 (stereo partly shown) [Example 140]

>  <pIC50>
8.24

$$$$
>  <compound>
Cc1nc(N2CC3CC(C2)O3)ncc1Cn1cc(C(=O)N[C@@H]2CCc3c2ncn3C)cn1 [Example 231]

>  <pIC50>
6.65

$$$$
>  <compound>
CCOc1nc(N2CC3C(C2)C3(F)F)ccc1Cn1cnc(C(=O)N[C@@H]2CCc3c2ncn3C)c1 (stereo partly shown) [Example 102]

>  <pIC50>
8.68

$$$$
>  <compound>
Cn1cnc2c1CC[C@H]2NC(=O)c1cn(Cc2ccc(N3CC4(CC4)C3)nc2F)cn1 [Example 11]

>  <pIC50>
8.68

$$$$
>  <compound>
Cc1nc(N2CC3CC3C2)ncc1Cn1cc(C(=O)N[C@@H]2CCc3c2ncn3C)nn1 (stereo partly shown) [Example 137]

>  <pIC50>
8.36

$$$$
>  <compound>
Cn1cnc2c1CC[C@H]2NC(=O)c1cnn(Cc2ccc(N3CC4(CC4)C3)nc2)c1 [Example 73]

>  <pIC50>
8.02

$$$$
>  <compound>
Cn1cnc2c1CC[C@H]2NC(=O)c1cn(Cc2ccc(N3CC4C(C3)C4(F)F)nc2)cn1 (stereo partly shown) [Example 63]

>  <pIC50>
8.52

$$$$
>  <compound>
CCc1nc(N2CC3(CC3)C2)ccc1Cn1cc(C(=O)N[C@@H]2CCc3c2ncn3C)nn1 [Example 20]

>  <pIC50>
9.15

$$$$
>  <compound>
CCn1nc(Cc2ccc(N3CC4CC4C3)nc2C)cc1C(=O)N[C@@H]1CCc2c1ncn2C (stereo partly shown) [Example 164]

>  <pIC50>
8.74

$$$$
>  <compound>
COCc1nc(N2CC3CC3C2)ccc1Cn1cc(C(=O)N[C@@H]2CCc3c2ncn3C)nn1 (stereo partly shown) [Example 92]

>  <pIC50>
8.55

$$$$
>  <compound>
Cn1cnc2c1CC[C@H]2NC(=O)c1cn(Cc2ccc(N3CC4CC4C3)c(C#N)c2F)cn1 (stereo partly shown) [Example 201]

>  <pIC50>
9.22

$$$$
>  <compound>
Cn1cnc2c1CC[C@H]2NC(=O)c1cnn(Cc2ccc(N3CC4CC4C3)nc2CC#N)c1 (stereo partly shown) [Example 81]

>  <pIC50>
8.89

$$$$
>  <compound>
Cc1nc(N2CC3C(C2)C3(F)F)ccc1Cc1ccc(C(=O)N[C@@H]2CCc3c2ncn3C)o1 (stereo partly shown) [Example 189]

>  <pIC50>
7.66

$$$$
>  <compound>
Cn1cnc2c1CC[C@H]2NC(=O)c1cnn(Cc2ccc(N3CC4CC4C3)nc2C2(C#N)CC2)c1 (stereo partly shown) [Example 42]

>  <pIC50>
9.22

$$$$
>  <compound>
Cn1cnc2c1CC[C@H]2NC(=O)c1cn(Cc2ccc(N3CC4CC4C3)nc2Br)nn1 (stereo partly shown) [Example 34]

>  <pIC50>
9.05

$$$$
